Assay: Pharmacokinetics of BTB in drainage fluid and portal venous blood after abdominal application of PAN indicator hydrogel (HPLC-MS)
Type: in vivo, domestic pigs (Sus Scrofa Domestica)
Conditions: pig, portal venous blood, other: abdominal application at the pancreatic surgery field, pig portal venous blood, Min 120, individual animals Tox 1-4; read-out: Portal Venous Blood BTB-Concentration
quantity: concentration at 120 min (µg/mL)

- Cc1c(C2(c3cc(C(C)C)c(O)c(Br)c3C)OS(=O)(=O)c3ccccc32)cc(C(C)C)c(O)c1Br: 0

* * *

Test: Pharmacokinetics of BTB in drainage fluid and portal venous blood after abdominal application of PAN indicator hydrogel (HPLC-MS)
Format: in vivo, domestic pigs (Sus Scrofa Domestica)
Details: pig, drainage fluid (peritoneal fluid), other: abdominal application at the pancreatic surgery field, pig drainage fluid, Day 1, mean of animals; read-out: Drainage BTB-Concentration, Mean
quantity: concentration at 1 day

* Cc1c(C2(c3cc(C(C)C)c(O)c(Br)c3C)OS(=O)(=O)c3ccccc32)cc(C(C)C)c(O)c1Br | 17.1 ng/mL

* * *

Assay: Pharmacokinetics of BTB in drainage fluid and portal venous blood after abdominal application of PAN indicator hydrogel (HPLC-MS)
Format: in vivo, domestic pigs (Sus Scrofa Domestica)
Details: pig, drainage fluid (peritoneal fluid), other: abdominal application at the pancreatic surgery field, pig drainage fluid, Min 120, mean of animals; read-out: Drainage BTB-Concentration, Mean
quantity: concentration at 120 min (ng/mL)

- Cc1c(C2(c3cc(C(C)C)c(O)c(Br)c3C)OS(=O)(=O)c3ccccc32)cc(C(C)C)c(O)c1Br [BTB, bromothymol blue]: 408

* * *

Experiment: Pharmacokinetics of BTB in drainage fluid and portal venous blood after abdominal application of PAN indicator hydrogel (HPLC-MS)
Type: in vivo, domestic pigs (Sus Scrofa Domestica)
Conditions: pig, drainage fluid (peritoneal fluid), other: abdominal application at the pancreatic surgery field, pig drainage fluid, Min 1, mean of animals; read-out: Drainage BTB-Concentration, Mean
quantity: concentration at 1 min (µg/mL)

• Cc1c(C2(c3cc(C(C)C)c(O)c(Br)c3C)OS(=O)(=O)c3ccccc32)cc(C(C)C)c(O)c1Br [BTB, bromothymol blue] = 4.22

* * *

Test: Pharmacokinetics of BTB in drainage fluid and portal venous blood after abdominal application of PAN indicator hydrogel (HPLC-MS)
Type: in vivo, domestic pigs (Sus Scrofa Domestica)
Conditions: pig, portal venous blood, other: abdominal application at the pancreatic surgery field, pig portal venous blood, Min 1, individual animals Tox 1-4; read-out: Portal Venous Blood BTB-Concentration
quantity: concentration at 1 min (ng/mL)

• Cc1c(C2(c3cc(C(C)C)c(O)c(Br)c3C)OS(=O)(=O)c3ccccc32)cc(C(C)C)c(O)c1Br = 0

* * *

Assay: Pharmacokinetics of BTB in drainage fluid and portal venous blood after abdominal application of PAN indicator hydrogel (HPLC-MS)
Assay type: in vivo, domestic pigs (Sus Scrofa Domestica)
Conditions: pig, portal venous blood, other: abdominal application at the pancreatic surgery field, pig portal venous blood, Min 60, mean of animals; read-out: Portal Venous Blood BTB-Concentration, Mean
quantity: concentration at 60 min (ng/mL)

* Cc1c(C2(c3cc(C(C)C)c(O)c(Br)c3C)OS(=O)(=O)c3ccccc32)cc(C(C)C)c(O)c1Br [BTB, bromothymol blue] | 0

* * *

Test: Pharmacokinetics of BTB in drainage fluid and portal venous blood after abdominal application of PAN indicator hydrogel (HPLC-MS)
Assay type: in vivo, domestic pigs (Sus Scrofa Domestica)
Details: pig, portal venous blood, other: abdominal application at the pancreatic surgery field, pig portal venous blood, Min 120, mean of animals; read-out: Portal Venous Blood BTB-Concentration, Mean
quantity: concentration at 120 min (µg/mL)

* Cc1c(C2(c3cc(C(C)C)c(O)c(Br)c3C)OS(=O)(=O)c3ccccc32)cc(C(C)C)c(O)c1Br | 0

Origin of the recorded values: patent US11730405B2
